Values from patent US20260083865A1

Can you tell me Kd for the items I'm about to list?
Target: Fc-fusion protein of human PSMA (hPSMA-Fc) (Homo sapiens, UniProt Q04609)
Construct: purchased Acro Biosystems PSA-H5264
Sequence (Q04609 44-750 limits assumed): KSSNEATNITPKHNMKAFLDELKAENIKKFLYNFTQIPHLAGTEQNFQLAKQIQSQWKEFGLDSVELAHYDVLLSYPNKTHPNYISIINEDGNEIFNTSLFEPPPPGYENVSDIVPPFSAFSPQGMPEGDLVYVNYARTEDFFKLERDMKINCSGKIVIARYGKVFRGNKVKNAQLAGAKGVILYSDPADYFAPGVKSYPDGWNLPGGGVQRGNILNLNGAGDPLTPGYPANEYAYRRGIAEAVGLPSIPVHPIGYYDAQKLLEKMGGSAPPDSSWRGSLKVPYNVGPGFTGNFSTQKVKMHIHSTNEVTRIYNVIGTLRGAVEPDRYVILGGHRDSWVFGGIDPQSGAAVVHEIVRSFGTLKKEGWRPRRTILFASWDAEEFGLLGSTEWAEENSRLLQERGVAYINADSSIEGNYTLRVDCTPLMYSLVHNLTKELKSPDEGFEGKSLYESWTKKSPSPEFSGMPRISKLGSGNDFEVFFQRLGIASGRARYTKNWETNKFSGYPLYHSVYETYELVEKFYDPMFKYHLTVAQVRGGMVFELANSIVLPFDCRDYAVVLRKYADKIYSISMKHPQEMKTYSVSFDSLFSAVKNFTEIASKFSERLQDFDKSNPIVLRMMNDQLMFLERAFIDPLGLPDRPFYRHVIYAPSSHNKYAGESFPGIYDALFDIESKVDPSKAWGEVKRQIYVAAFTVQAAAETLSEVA
Assay: Surface plasmon resonance assay (Biacore T200, single cycle kinetic)
Format: binding
Conditions: pKD category for PSMA SPR activity assay, hPSMA-Fc, 25° C.; read-out: pKD CAT (converted)
Description: Surface plasmon resonance (SPR) studies were performed using a Biacore™ T200 SPR system. Briefly, polarized light is directed towards a gold-labeled sensor surface, and minimum intensity reflected light is detected. […] For each test compound, SPR raw data in the form of resonance units (RU) were plotted as sensorgrams using the Biacore™ T200 control software. […] The pKD value (negative decadic logarithm of dissociation constant) was calculated using Microsoft Excel.
Numbered stars: 1 amine (or outer) side, 2 acyl side, 3 side chain; on linkers, the order of the positions; unused ones are H or OH. Bridge positions count the residues as written; N and C are the ends. Square brackets hold non-standard residues; d marks the D form. Peptide text beside a SMILES is read from it. * marks the point of attachment. X3 = O=C(O)CN1CCN(CC(=O)O)CCN(CC(=O)NCCCOCCOCCOCCCN*)CCN(CC(=O)O)CC1; DOTA = O=C(O)CN1CCN(CC(=O)O)CCN(CC(=O)*)CCN(CC(=O)O)CC1; Phe(4-Cl) = N[C@@H](Cc1ccc(Cl)cc1)C(=O)O; Phe(2-Cl) = N[C@@H](Cc1ccccc1Cl)C(=O)O; Arg(Me) = CNC(=N)NCCC[C@H](N)C(=O)O; d(αMeD) = C[C@@](N)(CC(=O)O)C(=O)O; X1 = O=C(CC1CCN([*:1])CC1)[*:2]; X6 = O=C(CN1CCN([*:1])CC1)[*:2]; Lys(Me) = CNCCCC[C@H](N)C(=O)O; NMeL = CN[C@@H](CC(C)C)C(=O)O; Suc = O=C(CCC(=O)[*:2])[*:1]; Tle = CC(C)(C)[C@H](N)C(=O)O; Aib = CC(C)(N)C(=O)O

Please review the entries below; each comes with its answer.
Compound	Tested On	Kd
CC(=O)N[C@H](C(=O)NC(C)(C)C(=O)N[C@@H](Cc1ccccc1Cl)C(=O)N[C@H]1CSSC[C@@H](C(=O)N[C@H](C(=O)N[C@H](C(=O)N[C@@H](CC(=O)O)C(N)=O)[C@@H](C)O)C(C)(C)C)NC(=O)[C@H](CC(N)=O)NC(=O)C(C)(C)NC(=O)[C@H](CCCNC(=N)N)NC(=O)[C@H](CCCCN)NC1=O)[C@@H](C)O [PSM-0558] (Ac-T[Aib][Phe(2-Cl)]CKR[Aib]NC[Tle]TD-NH2; disulfide 4-9)	Fc-fusion protein of human PSMA (hPSMA-Fc) (Homo sapiens, UniProt Q04609)	0.0126 to 0.126 µM
C[C@@H](O)[C@H](NC(=O)[C@@H](NC(=O)[C@@H]1CSSC[C@H](NC(=O)[C@H](Cc2ccc(Cl)cc2)NC(=O)[C@@](C)(CC(=O)O)NC(=O)[C@@H](NC(=O)CC2CCN(C(=O)CN3CCN(CC(=O)O)CCN(CC(=O)O)CCN(CC(=O)O)CC3)CC2)[C@@H](C)O)C(=O)N[C@@H](CCCCN)C(=O)N[C@@H](CCCNC(=N)N)C(=O)NC(C)(C)C(=O)N[C@@H](CC(N)=O)C(=O)N1)C(C)(C)C)C(N)=O [PSM-0366] ({DOTA}-[X1]T[d(αMeD)][Phe(4-Cl)]CKR[Aib]NC[Tle]T-NH2; disulfide 5-10)	Fc-fusion protein of human PSMA (hPSMA-Fc) (Homo sapiens, UniProt Q04609)	0.126 to 0.501 µM
C[C@@H](O)[C@H](NC(=O)[C@@H](NC(=O)[C@@H]1CSSC[C@H](NC(=O)[C@H](Cc2ccccc2)NC(=O)C(C)(C)NC(=O)CC2CCN(C(=O)CN3CCN(CC(=O)O)CCN(CC(=O)O)CCN(CC(=O)O)CC3)CC2)C(=O)N[C@@H](CCCCN)C(=O)N[C@@H](CCCNC(=N)N)C(=O)NC(C)(C)C(=O)N[C@@H](CC(N)=O)C(=O)N1)C(C)(C)C)C(N)=O [PSM-0507] ({DOTA}-[X1][Aib]FCKR[Aib]NC[Tle]T-NH2; disulfide 4-9)	Fc-fusion protein of human PSMA (hPSMA-Fc) (Homo sapiens, UniProt Q04609)	0.0126 to 0.126 µM
CCCC[C@H](NC(=O)[C@@H]1CSSC[C@H](NC(=O)[C@H](Cc2ccccc2)NC(=O)[C@H](C)NC(=O)[C@H](NC(C)=O)[C@H](C)O)C(=O)N[C@@H](CCCCN)C(=O)N[C@@H](CCCNC(=N)N)C(=O)N[C@@H](C)C(=O)N[C@@H](CC(N)=O)C(=O)N1)C(=O)N[C@H](C(=O)N[C@@H](CC(=O)O)C(N)=O)[C@@H](C)O	Fc-fusion protein of human PSMA (hPSMA-Fc) (Homo sapiens, UniProt Q04609)	> 0.501 µM

// each listed compound needs a value for Kd
1. C[C@@H](O)[C@H](NC(=O)[C@@H](NC(=O)[C@@H]1CSSC[C@H](NC(=O)[C@H](Cc2ccccc2)NC(=O)C(C)(C)NC(=O)[C@@H](NC(=O)CCC(=O)NCCCOCCOCCOCCCNC(=O)CN2CCN(CC(=O)O)CCN(CC(=O)O)CCN(CC(=O)O)CC2)[C@@H](C)O)C(=O)N[C@@H](CCCCN)C(=O)N[C@@H](CCC(N)=O)C(=O)NC(C)(C)C(=O)N[C@@H](CC(N)=O)C(=O)N1)C(C)(C)C)C(N)=O [PSM-0521] ({X3-Suc}-T[Aib]FCKQ[Aib]NC[Tle]T-NH2; disulfide 4-9)
2. C[C@@H](O)[C@H](NC(=O)[C@@H](NC(=O)[C@@H]1CSSC[C@H](NC(=O)[C@H](Cc2ccc(Cl)cc2)NC(=O)C(C)(C)NC(=O)[C@@H](NC(=O)CC2CCN(C(=O)CN3CCN(CC(=O)O)CCN(CC(=O)O)CCN(CC(=O)O)CC3)CC2)[C@@H](C)O)C(=O)N[C@@H](CCCCN)C(=O)N[C@@H](CCCNC(=N)N)C(=O)N[C@@H](CCC(=O)O)C(=O)N[C@@H](CC(N)=O)C(=O)N1)C(C)(C)C)C(N)=O [PSM-0416] ({DOTA}-[X1]T[Aib][Phe(4-Cl)]CKRENC[Tle]T-NH2; disulfide 5-10)
3. CNCCCC[C@@H]1NC(=O)[C@@H](NC(=O)[C@H](Cc2ccc(Cl)cc2)NC(=O)C(C)(C)NC(=O)[C@@H](NC(=O)CC2CCN(C(=O)CN3CCN(CC(=O)O)CCN(CC(=O)O)CCN(CC(=O)O)CC3)CC2)C(C)(C)C)CSSC[C@@H](C(=O)N[C@H](C(=O)N[C@H](C(N)=O)[C@@H](C)O)C(C)(C)C)NC(=O)[C@H](CC(N)=O)NC(=O)C(C)(C)NC(=O)[C@H](CCCNC(=N)NC)NC1=O [PSM-0538] ({DOTA}-[X1][Tle][Aib][Phe(4-Cl)]C[Lys(Me)][Arg(Me)][Aib]NC[Tle]T-NH2; disulfide 5-10)
4. C[C@@H](O)[C@H](NC(=O)[C@@H](NC(=O)[C@@H]1CSSC[C@H](NC(=O)[C@H](Cc2ccccc2)NC(=O)C(C)(C)NC(=O)CN2CCN(C(=O)CN3CCN(CC(=O)O)CCN(CC(=O)O)CCN(CC(=O)O)CC3)CC2)C(=O)N[C@@H](CCCCN)C(=O)N[C@@H](CCCNC(=N)N)C(=O)NC(C)(C)C(=O)N[C@@H](CC(N)=O)C(=O)N1)C(C)(C)C)C(N)=O [PSM-0413] ({DOTA}-[X6][Aib]FCKR[Aib]NC[Tle]T-NH2; disulfide 4-9)
5. CC(C)C[C@@H](C(=O)N[C@H](C(N)=O)[C@@H](C)O)N(C)C(=O)[C@@H]1CSSC[C@H](NC(=O)[C@H](Cc2ccc(Cl)cc2)NC(=O)C(C)(C)NC(=O)[C@@H](NC(=O)CC2CCN(C(=O)CN3CCN(CC(=O)O)CCN(CC(=O)O)CCN(CC(=O)O)CC3)CC2)[C@@H](C)O)C(=O)N[C@@H](CCCCN)C(=O)N[C@@H](CCCNC(=N)N)C(=O)NC(C)(C)C(=O)N[C@@H](CC(N)=O)C(=O)N1 [PSM-0497] ({DOTA}-[X1]T[Aib][Phe(4-Cl)]CKR[Aib]NC[NMeL]T-NH2; disulfide 5-10)

["0.0126 to 0.126 µM", "< 0.0126 µM", "0.126 to 0.501 µM", "0.0126 to 0.126 µM", "0.126 to 0.501 µM"]
